- Assay System: human 5-HT2B receptor (Homo sapiens)
- Construct: host or cells: Flp-In T-REx 293 cells (HEK 293)
- Protocol Text: 5-HT2B receptor functional activity (agonist) using Ca2+ mobilization assay in Flp-In T-REx 293 cells
- Format: cell-based
pEC50: −log10 of the molar value.
Values of pEC50 greater than or equal to 7 map to T; values below map to F.

Solved entries:
- Compound: "CCCCCCc1cc(OC)c(CC(C)N)cc1OC (stereo not shown)"
  Assigned Category: "F"
- Compound: "COc1cc(CC(C)N)c(OC)cc1F (stereo not shown)"
  Assigned Category: "F"
- Compound: "COc1cc(CC(C)N)c(OC)cc1Br (stereo not shown)"
  Assigned Category: "T"
- Compound: "COc1ccc(OC)c(CC(C)N)c1 (stereo not shown)"
  Assigned Category: "F"
- Compound: "COc1cc(CC(C)N)c(OC)cc1I (stereo not shown)"
  Assigned Category: "T"

Request: Does COc1cc(C(C)(C)C)c(OC)cc1CC(C)N (stereo not shown) have a reported pEC50 of at least 7?
Result: T

Request: Does COc1cc(CC(C)N)c(OC)cc1Cc1ccccc1 (stereo not shown) have a reported pEC50 of at least 7?
Result: F

Request: Does CCOc1cc(OC)c(CC(C)N)cc1OC (stereo not shown) have a reported pEC50 of at least 7?
Result: F

Request: Does CCCc1cc(OC)c(CC(C)N)cc1OC (stereo not shown) have a reported pEC50 of at least 7?
Result: T

---

Maximal 5-HT effect reference
- Assay System: human 5-HT2B receptor (Homo sapiens, UniProt P41595)
- Construct: host or cells: Flp-In T-REx 293 cells (HEK 293)
- Sequence (P41595 whole entry): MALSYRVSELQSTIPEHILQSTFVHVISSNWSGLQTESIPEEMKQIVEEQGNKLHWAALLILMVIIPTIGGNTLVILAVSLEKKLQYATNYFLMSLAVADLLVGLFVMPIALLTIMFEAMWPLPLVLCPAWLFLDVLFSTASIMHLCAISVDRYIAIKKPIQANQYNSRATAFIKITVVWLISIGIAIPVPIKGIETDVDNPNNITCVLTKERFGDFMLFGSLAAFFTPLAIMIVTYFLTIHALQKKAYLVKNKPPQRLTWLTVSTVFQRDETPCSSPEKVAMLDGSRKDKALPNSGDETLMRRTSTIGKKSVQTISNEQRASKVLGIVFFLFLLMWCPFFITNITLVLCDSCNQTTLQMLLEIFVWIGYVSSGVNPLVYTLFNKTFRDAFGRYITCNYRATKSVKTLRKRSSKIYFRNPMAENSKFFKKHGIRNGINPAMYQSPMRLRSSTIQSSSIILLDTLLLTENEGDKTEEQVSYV
- Protocol Text: 5-HT2B receptor functional activity (agonist) using Ca2+ mobilization assay in Flp-In T-REx 293 cells
- Type: cell-based
- Details: maximal effect relative to 5-HT = 100%

Reference set, count: 4
- Compound: "COc1cc(CC(C)N)c(OC)cc1I (centres unmarked)"
  Assay System: "human 5-HT2B receptor (Homo sapiens, UniProt P41595)"
  Maximal 5-HT effect: "71%"
- Compound: "COc1ccc(OC)c(C[C@@H](C)N)c1 (single isomer, unassigned) [R (−) enantiomer]"
  Assay System: "human 5-HT2B receptor (Homo sapiens, UniProt P41595)"
  Maximal 5-HT effect: "87%"
- Compound: "CCCc1cc(OC)c(CC(C)N)cc1OC (centres unmarked)"
  Assay System: "human 5-HT2B receptor (Homo sapiens, UniProt P41595)"
  Maximal 5-HT effect: "75%"
- Compound: "CCCCCCc1cc(OC)c(CC(C)N)cc1OC (centres unmarked)"
  Assay System: "human 5-HT2B receptor (Homo sapiens, UniProt P41595)"
  Maximal 5-HT effect: "0%"

Turning now to a further compound:
Per the records, this compound ( COc1ccc(OC)c(C[C@H](C)N)c1 [S (+)1a] ) has Maximal 5-HT effect equal to 100%

---

Emax reference
- Assay System: human 5-HT2B receptor (Homo sapiens, UniProt P41595)
- Construct: host or cells: Flp-In T-REx 293 cells (HEK 293)
- Protocol Text: 5-HT2B receptor functional activity (agonist) using Ca2+ mobilization assay in Flp-In T-REx 293 cells
- Format: cell-based
- Details: Flp-In-T-REx-293, read-out: Maximal 5-HT effect
Answer with a number only, understood to be in %.

Reference set, count: 6
- Compound: "COc1cc(CC(C)N)c(OC)cc1Br (stereo not shown)"
  Value Unit: "%"
  Emax: 70
- Compound: "COc1cc(C(C)(C)C)c(OC)cc1CC(C)N (stereo not shown)"
  Value Unit: "%"
  Emax: 69
- Compound: "COc1ccc(OC)c(CC(C)N)c1 (stereo not shown)"
  Value Unit: "%"
  Emax: 93
- Compound: "COc1cc(CC(C)N)c(OC)cc1Cc1ccccc1 (stereo not shown)"
  Value Unit: "%"
  Emax: 0
- Compound: "COc1cc([N+](=O)[O-])c(OC)cc1CC(C)N (stereo not shown)"
  Value Unit: "%"
  Emax: 77
- Compound: "CCOc1cc(OC)c(CC(C)N)cc1OC (stereo not shown)"
  Value Unit: "%"
  Emax: 70

Per the records, this compound ( COc1cc(CC(C)N)c(OC)cc1F (stereo not shown) ) has Emax equal to 82
